Test system: RARg homodimer (NR concentration 270 nM)
Assay: PBM binding z-score (relative to random genomic background probes); higher = stronger binding; sequences stand for … in GC…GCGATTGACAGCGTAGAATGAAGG
assay-metric: PBM binding z-score

# input For the sequence shown here, CCAACTAGGTCACCAGGACAGTGAAGAGGTTGGA , give the reported PBM binding z-score.
# output 5.37

# input For the sequence shown here, ATCGAATGGTCGTGAGGTGAGTATACAGAAAGGC , give the reported PBM binding z-score.
# output 0.684

# input For the sequence shown here, CCGAGTAGGTTACGAGGGGGCATTCAGTGCGAAT , give the reported PBM binding z-score.
# output 2.54

# input For the sequence shown here, ACCAGCAGGCCAAGGGTCACTCAAGATTAGTCCG , give the reported PBM binding z-score.
# output 3.49

# input For the sequence shown here, CGAACTAGGTCAGAACAGTACAGTGAAGGATGAT , give the reported PBM binding z-score.
# output 3.33

# input For the sequence shown here, ATATGTAGGTTACATCCGGGTCATTCTGGCTATG , give the reported PBM binding z-score.
# output 1.93

# input For the sequence shown here, CAGCCTAGGTGAGGGCCAGTATAGGAGGAACGTT , give the reported PBM binding z-score.
# output 0.177

# input For the sequence shown here, CGAACTAGGTCATCGAGGACAGTGAATACATTGA , give the reported PBM binding z-score.
# output 5.19

# input For the sequence shown here, CCTAGCAGACCAATCTGGGTCACTCAAGGCTTGA , give the reported PBM binding z-score.
# output 0.527

# input For the sequence shown here, CCTACTGGGCCAAAGGTCCTTGATTCCAATGCTC , give the reported PBM binding z-score.
# output -0.124

# input For the sequence shown here, TCGACTAGGTTACGGGGGCATTCAGGGATGAAGA , give the reported PBM binding z-score.
# output 3.14

# input For the sequence shown here, CGGACTAGGTCACCAGGACAGTGAAGAGGTTGGA , give the reported PBM binding z-score.
# output 5.61

# input For the sequence shown here, ATATGTAGGTTAGGGTCATGCAGAAAGTAGGGAA , give the reported PBM binding z-score.
# output 3.61

# input For the sequence shown here, TTTAGTTGGTCAAAGGTCACACACTCGAAATGCG , give the reported PBM binding z-score.
# output 6.17

# input For the sequence shown here, AGTCAAAGTTCACTAGGCAACGTAAGATTCAGCT , give the reported PBM binding z-score.
# output 5.8

# input For the sequence shown here, CTATGTAGGTTAAGGCGGTCATTCAGTTTGAAAG , give the reported PBM binding z-score.
# output 1.44

# input For the sequence shown here, CCGAGTAGGTTACGAGGGGGCCTTCAGTGCGAAT , give the reported PBM binding z-score.
# output 1.32

# input For the sequence shown here, CGAACTAGGTCAACGGACAGTGAAAGGCGACGTA , give the reported PBM binding z-score.
# output 4.8

# input For the sequence shown here, CAAACTAGGTCAAAGGTCAGAGTCGAGCCAACCA , give the reported PBM binding z-score.
# output 6.87

# input For the sequence shown here, GATACAGGGTCAAGGCCAGAATACGCGTATTGAT , give the reported PBM binding z-score.
# output 4.93

# input For the sequence shown here, TCTAGTTGGTCATGGAGGTCACACACGACGGGTA , give the reported PBM binding z-score.
# output 5.01

# input For the sequence shown here, CGGACTAGGTCAAAGGACAGTGAAAGGCGACGTA , give the reported PBM binding z-score.
# output 4.51

# input For the sequence shown here, CGAGCTAGGTCAAAGGACAGTGAAAGGCGACGTA , give the reported PBM binding z-score.
# output 4.87

# input For the sequence shown here, AGTCAAAGTTCACGACGAGGTAACGTAAAGCACG , give the reported PBM binding z-score.
# output 6.88

# input For the sequence shown here, ACTAGTAGGTCAGCTGAGGTCACACACAATTCGG , give the reported PBM binding z-score.
# output 7.1

# input For the sequence shown here, CCTAGTTGGTCAAGGTCCCACACGCTATAGGTAC , give the reported PBM binding z-score.
# output 1.19

# input For the sequence shown here, CGAACTAGGTCAGAACAGGACATTGAAGGATGAT , give the reported PBM binding z-score.
# output 3.4

# input For the sequence shown here, CCTACTGGGCCATTCAGAGGTCATTGTTCATATG , give the reported PBM binding z-score.
# output 2.88

# input For the sequence shown here, CATACCGGGTCAGCTAGGCCAGAGTAGGGACGGC , give the reported PBM binding z-score.
# output 3.83

# input For the sequence shown here, CTCGAAAGGTCGGTTGAGGTCAGTATACGGATAA , give the reported PBM binding z-score.
# output 4.93

# input For the sequence shown here, AGTCAAAGGTCAGGACGAGGTAACGTAAAGCACG , give the reported PBM binding z-score.
# output 7.93

# input For the sequence shown here, CGTCCAACGTCAGCAGGTCAGTGAAAGCGACGTG , give the reported PBM binding z-score.
# output 1.54

# input For the sequence shown here, ACTCGGAGGACAAAGGTCACAGCTACGCCAGTGA , give the reported PBM binding z-score.
# output 6.99

# input For the sequence shown here, CCTTGCGGGTCACTGACAGGTTATAGCATTTGGA , give the reported PBM binding z-score.
# output 4.17

# input For the sequence shown here, AGTCAAAGTTCATCTGGGTAACGTAAGATATGCT , give the reported PBM binding z-score.
# output 5.48

# input For the sequence shown here, CTAACTAGGTCACGAAAGGTCAAAGTCGAATGAC , give the reported PBM binding z-score.
# output 8.55

# input For the sequence shown here, CTCGAAAGGTCGTGCTTAGGTGAGTATACCAAAC , give the reported PBM binding z-score.
# output 3.82

# input For the sequence shown here, ATATGTAGGTTAGGGTCATTAAGAAAGTAGGGAA , give the reported PBM binding z-score.
# output 2.76

# input For the sequence shown here, ATATTTAGGTTAGGGTCATTCAGAAAGTAGGGAA , give the reported PBM binding z-score.
# output 3.55

# input For the sequence shown here, TAGAGTAGGTTACGGGGGCATTCAGGGATGAAGA , give the reported PBM binding z-score.
# output 2.77

# input For the sequence shown here, CTATGTAGGTTAAGGGGGTCATTCACTTTGAAAG , give the reported PBM binding z-score.
# output 4.05

# input For the sequence shown here, CGAACTAGGTCAAAGGACAGAGAAAGGCGACGTA , give the reported PBM binding z-score.
# output 4.46

# input For the sequence shown here, ATCGGAAGGTCGAGGTGAGTATAGAGAAAGGGAA , give the reported PBM binding z-score.
# output 2.75

# input For the sequence shown here, AGAATGAGGTTACACGTAGATCAGGGAAGAAAGT , give the reported PBM binding z-score.
# output 1.89

# input For the sequence shown here, TAGCCTAGGTCATGCGGGTCAGTATAGTGTCGGC , give the reported PBM binding z-score.
# output 4.9

# input For the sequence shown here, CTATGCAGGTTAAGGGGGTCATTCAGTTTGAAAG , give the reported PBM binding z-score.
# output 4.11

# input For the sequence shown here, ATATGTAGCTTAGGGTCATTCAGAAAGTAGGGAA , give the reported PBM binding z-score.
# output 2.73

# input For the sequence shown here, CTCGAAAGGTCGTGCTCAGGTGAGTACACCAAAC , give the reported PBM binding z-score.
# output 4.41

# input For the sequence shown here, CTATGTAGGTTAAGGGGGTCTTTCAGTTTGAAAG , give the reported PBM binding z-score.
# output 1.25

# input For the sequence shown here, CGAACTAGGTCACTAGGACAGTGAAGAGGTTGGA , give the reported PBM binding z-score.
# output 4.16

# input For the sequence shown here, TCGAGTAGGTGACGGGGGCATTCAGGGATGAAGA , give the reported PBM binding z-score.
# output 1.91

====

Tested on: PXR:RXRa (NR concentration 270 nM, RXRa partner concentration 90 nM)
Assay: PBM binding z-score (relative to random genomic background probes); higher = stronger binding; sequences stand for … in GC…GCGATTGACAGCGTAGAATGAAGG
assay-metric: PBM binding z-score

# input For the sequence shown here, CCTAGCAGGCCAATCGGGGTCACTCAAGGCTTGA , give the reported PBM binding z-score.
# output 6.01

# input For the sequence shown here, CGAACTAGGTCACCATGACAGTGAAGAGGTTGGA , give the reported PBM binding z-score.
# output 1.4

# input For the sequence shown here, CGAACTAGCTCACCAGGACAGTGAAGAGGTTGGA , give the reported PBM binding z-score.
# output -0.706

# input For the sequence shown here, CCGAGTAGGTTACGAGGGTGCATTCAGTGCGAAT , give the reported PBM binding z-score.
# output 4.47

# input For the sequence shown here, CGAACTAGGACAAAGGACAGTGAAAGGCGACGTA , give the reported PBM binding z-score.
# output -0.405

# input For the sequence shown here, CGAACTAGATCACCAGGACAGTGAAGAGGTTGGA , give the reported PBM binding z-score.
# output -0.455

# input For the sequence shown here, CGAACTAGGTCAAAGGACAGTTAAAGGCGACGTA , give the reported PBM binding z-score.
# output 1.32

# input For the sequence shown here, CCGAGTTGGTTACGAGGGGGCATTCAGTGCGAAT , give the reported PBM binding z-score.
# output 3.41

# input For the sequence shown here, TCGAGTAGGTTACGGCGGCATTCAGGGATGAAGA , give the reported PBM binding z-score.
# output -0.0606

# input For the sequence shown here, CGAACTAGATCAAAGGACAGTGAAAGGCGACGTA , give the reported PBM binding z-score.
# output -0.456

# input For the sequence shown here, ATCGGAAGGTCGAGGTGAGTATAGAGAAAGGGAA , give the reported PBM binding z-score.
# output 1.1

# input For the sequence shown here, CGAACTAGGTCACCAGGACAGTAAAGAGGTTGGA , give the reported PBM binding z-score.
# output 1.66
